Exercise: state measured % PTEN mRNA levels in Fat for each of the substances provided.
Tested on: PTEN mRNA
assay_summary: PTEN mRNA levels in liver, kidney and fat, Balb/c mice, single 8 μmol/kg i.p. (Example 6, Table 48)
Assay type: in vivo, mouse
run_parameters: 8 μmol/kg single i.p., 72 h, saline = 100
Strand notation (5' to 3'): a small letter for the sugar, then the base; units joined by * are phosphorothioate-linked, units joined directly phosphodiester-linked; [ ] holds rarer units or linkages, { } end groups; capitals alone tell only the bases. e = 2'-O-(2-methoxyethyl) (MOE); l = locked nucleic acid (LNA); [5mC] = 5-methylcytosine; d = 2'-deoxy (DNA)
Write the number in % without appending the unit.

Ask: Returns the measured % PTEN mRNA levels in Fat for the input substance. Input: 384073 (antisense lG*lC*lT*dA*dG*d[5mC]*d[5mC]*dT*d[5mC]*dT*dG*dG*dA*lT*lT*lT) [compound 384073]
Result: 77

Ask: Query 391172 (antisense lC*lT*dA*dG*dC*dC*dT*dC*dT*dG*dG*dA*lT*lT*lT) [compound 391172] next
Result: 101

Ask: Query 141923 (antisense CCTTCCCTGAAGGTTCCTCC; sugars from the 5' end e5 d10 e5, all phosphorothioate, methylation of C not given here) [compound 141923] next
Result: 118

Ask: Query 392061 (antisense l[5mC]*lT*dA*dG*dC*dC*dT*dC*dT*dG*dG*dA*lT*lT) [compound 392061] next
Result: 85

* * *

Exercise: state measured % Inhibition Range (PCSK9 mRNA) for each of the substances provided.
System: PCSK9 mRNA
Format: cell-based, human
run_parameters: Hep3B cells, 100 nM, relative to untreated control cells
Strand notation (5' to 3'): a small letter for the sugar, then the base; units joined by * are phosphorothioate-linked, units joined directly phosphodiester-linked; [ ] holds rarer units or linkages, { } end groups; capitals alone tell only the bases. e = 2'-O-(2-methoxyethyl) (MOE); [5mC] = 5-methylcytosine; d = 2'-deoxy (DNA)

Ask: Returns the measured % Inhibition Range (PCSK9 mRNA) for the input substance. Input: 400349 (antisense e[5mC]*eT*dG*dG*dA*dG*d[5mC]*dA*dG*d[5mC]*dT*d[5mC]*eA*eG) [compound 400349]
Result: 10-20%

Ask: Query 400313 (eG*e[5mC]*dA*dT*d[5mC]*d[5mC]*d[5mC]*dG*dG*d[5mC]*d[5mC]*dG*e[5mC]*eT; antisense) [compound 400313] next
Result: 10-20%

Ask: Query 400301 (antisense e[5mC]*eG*d[5mC]*dT*d[5mC]*d[5mC]*dA*dG*dG*dT*dT*d[5mC]*e[5mC]*eA) [compound 400301] next
Result: 20-30%

Ask: Query 400305 (antisense eG*e[5mC]*d[5mC]*dT*dG*dT*d[5mC]*dT*dG*dT*dG*dG*eA*eA) [compound 400305] next
Result: 30-40%

Ask: Query 400328 (eA*e[5mC]*dG*dT*dG*dG*dG*d[5mC]*dA*dG*d[5mC]*dA*eG*e[5mC]; antisense) [compound 400328] next
Result: 10-20%

Ask: Query 400366 (antisense eG*e[5mC]*dT*d[5mC]*d[5mC]*dG*dG*d[5mC]*dA*dG*d[5mC]*dA*eG*eA) [compound 400366] next
Result: 10-20%

Ask: Query 400308 (e[5mC]*e[5mC]*dG*dG*d[5mC]*d[5mC]*dG*d[5mC]*dT*dG*dA*d[5mC]*e[5mC]*eA; antisense) [compound 400308] next
Result: 50-60%

Ask: Query 400312 (e[5mC]*eA*dT*d[5mC]*d[5mC]*d[5mC]*dG*dG*d[5mC]*d[5mC]*dG*d[5mC]*eT*eG; antisense) [compound 400312] next
Result: 20-30%

Ask: Query 400352 (antisense e[5mC]*eA*d[5mC]*d[5mC]*d[5mC]*dT*d[5mC]*dA*d[5mC]*d[5mC]*d[5mC]*d[5mC]*e[5mC]*eA) [compound 400352] next
Result: 20-30%

Ask: Query 400370 (antisense eG*e[5mC]*d[5mC]*dG*dG*d[5mC]*dT*d[5mC]*d[5mC]*dG*dG*d[5mC]*eA*eG) [compound 400370] next
Result: 10-20%

Ask: Query 400327 (eG*eT*d[5mC]*d[5mC]*d[5mC]*d[5mC]*dA*dA*dA*dG*dT*d[5mC]*e[5mC]*e[5mC]; antisense) [compound 400327] next
Result: 30-40%

Ask: Query 400314 (eG*eT*dG*d[5mC]*d[5mC]*d[5mC]*dT*dT*d[5mC]*d[5mC]*d[5mC]*dT*eT*eG; antisense) [compound 400314] next
Result: 20-30%

* * *

Tested on: PTP1B mRNA
assay_summary: Dose response for human PTP1B in HuVEC cells, Primer Probe Set 198 (Example 25, Table 86)
Type: cell-based
run_parameters: PPS 198, 3.33 nM
Strand notation (5' to 3'): a small letter for the sugar, then the base; units joined by * are phosphorothioate-linked, units joined directly phosphodiester-linked; [ ] holds rarer units or linkages, { } end groups; capitals alone tell only the bases. e = 2'-O-(2-methoxyethyl) (MOE); [5mC] = 5-methylcytosine; d = 2'-deoxy (DNA)
measured_parameter: % Inhibition of PTP1B mRNA (%)
Write the number in % without appending the unit.

Ask: Returns the measured % Inhibition of PTP1B mRNA for the input substance. Input: 399315 (antisense eG*eG*d[5mC]*dA*dA*d[5mC]*dT*dT*d[5mC]*dA*dA*d[5mC]*e[5mC]*eT) [compound 399315]
Result: 20

Ask: Query 399132 (antisense eG*eG*dG*d[5mC]*dT*dG*dA*dG*dT*dG*dA*d[5mC]*e[5mC]*e[5mC]) [compound 399132] next
Result: 32

Ask: Query 399113 (antisense eG*eT*dT*dA*dG*dG*d[5mC]*dA*dA*dA*dG*dG*eG*e[5mC]) [compound 399113] next
Result: 31

Ask: Query 399096 (antisense eT*eG*d[5mC]*dT*d[5mC]*dG*dA*dA*d[5mC]*dT*d[5mC]*d[5mC]*eT*eT) [compound 399096] next
Result: 30

Ask: Query 399276 (antisense eG*eA*dG*dG*dT*dA*dT*d[5mC]*d[5mC]*d[5mC]*dA*dT*e[5mC]*eT) [compound 399276] next
Result: 8

Ask: Query 398120 (antisense eG*eT*dT*d[5mC]*dA*dA*dG*d[5mC]*dG*dG*d[5mC]*d[5mC]*eT*eA) [compound 398120] next
Result: 31

* * *

Exercise: state measured % Inhibition of PTP1B mRNA for each of the substances provided.
Test system: PTP1B mRNA
assay_summary: Dose response for human PTP1B in HuVEC cells, Primer Probe Set 3000 (Example 25, Table 87)
Assay type: cell-based
run_parameters: PPS 3000, 10.0 nM
Strand notation (5' to 3'): a small letter for the sugar, then the base; units joined by * are phosphorothioate-linked, units joined directly phosphodiester-linked; [ ] holds rarer units or linkages, { } end groups; capitals alone tell only the bases. e = 2'-O-(2-methoxyethyl) (MOE); [5mC] = 5-methylcytosine; d = 2'-deoxy (DNA)
Write the number in % without appending the unit.

Ask: Returns the measured % Inhibition of PTP1B mRNA for the input substance. Input: 399173 (antisense eA*eT*dG*d[5mC]*dT*dA*dG*dT*dG*d[5mC]*dA*d[5mC]*eT*eA) [compound 399173]
Result: 59

Ask: Query 398105 (antisense eT*eG*d[5mC]*dA*d[5mC]*dA*dG*dG*d[5mC]*dA*dG*dG*eT*eT) [compound 398105] next
Result: 79

Ask: Query 399096 (antisense eT*eG*d[5mC]*dT*d[5mC]*dG*dA*dA*d[5mC]*dT*d[5mC]*d[5mC]*eT*eT) [compound 399096] next
Result: 75

Ask: Query 398112 (antisense e[5mC]*eA*dG*d[5mC]*d[5mC]*dT*dG*dG*d[5mC]*dA*d[5mC]*d[5mC]*eT*eA) [compound 398112] next
Result: 77

* * *

System: PCSK9 mRNA
assay_summary: Dose-dependent inhibition of PCSK9 in Hep3B cells with EC50 (Example 19, Table 76)
Format: cell-based, human
run_parameters: 80 nM
Strand notation (5' to 3'): a small letter for the sugar, then the base; units joined by * are phosphorothioate-linked, units joined directly phosphodiester-linked; [ ] holds rarer units or linkages, { } end groups; capitals alone tell only the bases. e = 2'-O-(2-methoxyethyl) (MOE); [5mC] = 5-methylcytosine; d = 2'-deoxy (DNA)
measured_parameter: % Inhibition of PCSK9 (%)
Write the number in % without appending the unit.

Ask: Returns the measured % Inhibition of PCSK9 for the input substance. Input: 400330 (e[5mC]*e[5mC]*dA*d[5mC]*dG*dT*dG*dG*dG*d[5mC]*dA*dG*e[5mC]*eA; antisense) [compound 400330]
Result: 82

Ask: Query 400352 (antisense e[5mC]*eA*d[5mC]*d[5mC]*d[5mC]*dT*d[5mC]*dA*d[5mC]*d[5mC]*d[5mC]*d[5mC]*e[5mC]*eA) [compound 400352] next
Result: 63

Ask: Query 400331 (eG*e[5mC]*d[5mC]*dA*d[5mC]*dG*dT*dG*dG*dG*d[5mC]*dA*eG*e[5mC]; antisense) [compound 400331] next
Result: 75

Hello, the source for this data is patent US8188059B2, in case you need it.
